Each record here notes measured IC50.
- system: T1, human PD-1 on cells (293T cells transfected with human PD-1) (human, UniProt Q15116 25-288)
- T1 construct: whole, on cells; Also used as the target for the functional rows, where PD-1 stands on human T cells
- T1 sequence (Q15116 25-288): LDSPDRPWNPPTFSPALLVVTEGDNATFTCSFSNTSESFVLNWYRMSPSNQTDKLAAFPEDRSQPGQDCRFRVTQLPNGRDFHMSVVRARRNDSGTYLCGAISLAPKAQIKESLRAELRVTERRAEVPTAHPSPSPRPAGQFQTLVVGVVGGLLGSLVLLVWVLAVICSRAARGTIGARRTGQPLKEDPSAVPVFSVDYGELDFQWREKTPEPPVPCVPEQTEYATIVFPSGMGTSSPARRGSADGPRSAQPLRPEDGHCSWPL
- procedure.summary: FACS blockage on hPD-1-293T cells, competitor biotin PD-L1
- Experimental: Various concentrations of the testing hybridoma antibodies were added to the cell suspension and incubated at 4° C. for 60 minutes in 96 well plates. […] Plates were washed 3 times, and mouse anti-biotin PE antibody (Biolgend, cat# 409004) was added. Flow cytometric analyses were performed using a FACS Array. The purified hybridoma antibodies were characterized further based on ELISA and FACS analyses.

binder	IC50 [µg/mL]
14A6 murine anti-PD-1 antibody (antibody, V domains shown, Purified hybridoma antibody; also called 14A6-mIgG1) VH: DVQLQESGPGLVKPSQSLSLTCTVTGYSITSDYAWNWIRQFPGNQLEWMAYISYSGYTSYNPSLKSRISITRDTSRNQFFLQLNSVTTEDTATYYCARSLDYDYGTMDYWGQGTSVTVSS VL: QIVLSQSPAILSASPGEKVTMTCRANSSVSSMHWYQQKPGSSPEPWIYAISNLAFGVPARFSGSGSGTSYSLTISRVEAEDAATYFCQQWNSRPPTFGGGTKLEIKR	0.0211
7D3 murine anti-PD-1 antibody (antibody, V domains shown, Purified hybridoma antibody; also called 7D3-mIgG1) VH: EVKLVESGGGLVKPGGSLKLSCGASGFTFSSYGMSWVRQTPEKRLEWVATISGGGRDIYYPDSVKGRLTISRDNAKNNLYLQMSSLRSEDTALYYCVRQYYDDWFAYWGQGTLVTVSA VL: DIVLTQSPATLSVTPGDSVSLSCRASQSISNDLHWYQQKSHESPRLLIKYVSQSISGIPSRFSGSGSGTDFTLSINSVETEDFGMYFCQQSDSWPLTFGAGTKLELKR	0.038
4C10 murine anti-PD-1 antibody (antibody, V domains shown, Purified hybridoma antibody; also called 4C10-mIgG1) VH: QVQLKQSGPGLVQPSQNLSVTCTVSGFSLTTYGVHWVRQSPGKGLEWLGVIWSGGSTDYNAAFISRLTISKDNARSQVFFKMNSLQVNDTAMYYCAREKSVYGNYVGAMDYWGQGTSVTVSS VL: SIVMTQTPKFLLVSAGDRVTITCKASQSVSDDVAWYQQKPGQSPKLLIYYAFNRYTGVPDRFTGSGYGTDFTFTISTVQSEDLAVYFCQQDYRSPWTFGGGTKLEIKR	0.0833
